Assay: melting temperature; fluorescence melt of hairpins on a sequencing array, two-state fit, raised by 9.35 °C to match UV melts
Conditions: sodium 0.088 M
property.measured: Tm (°C)
Report as a plain number; the unit °C is understood.

These recorded examples may help you get a feel for the data.
| sequence.chain | endpoint.result |
| --- | --- |
| GGTATACGAAAGTACACC (((.(((....))).))) | 40 |
| GCCTACGAAAGTAGTGGC ((((((....)))..))) | 48.4 |
| GGTCGCGAAAGCGTACC ((((((....))).))) | 62 |
| GATCTTTTGTAAGATC ((((((....)))))) | 44.2 |
| GTGCCGGGAAACTGGCGC (.(((.(....).))).) | 53.4 |
| GCTGCAGGAAACTGCGGC ((.((((....)))).)) | 61.6 |

Prompt: # input sequence: GATCGGCGAAAGCCTATC (((.(((....))).))) ; wanted: its Tm
Response: 39.9

Prompt: # get_value(readout='Tm', item= GCAGCAGCGAAAGCTTGC (((..(((....)))))) )
Response: 43.5

Prompt: Would you mind telling me what Tm value was observed for GATCCGACCACGGATC ((((((....)))))) ?
Response: 61.3

Prompt: Please report the recorded Tm for GCAGAGCGAAAGCACAGC ((.(.((....)).).)) .
Response: 42.9

Prompt: Need Tm of GGTGACGAAAGTCTAACC ((((((....)))..))) , thanks.
Response: 42.2

Prompt: Would you kindly share the measured Tm for GGCAGTGGAAACACTGTC (.(((((....))))).) ?
Response: 54.1

Prompt: # Tm lookup, item GTAAACGAAAGTTTGTAC ((((((....)))..)))
Response: 27.6

Prompt: Entry under review: CAGCTGAAAAGCTG (((((....))))) . Reported Tm?
Response: 58.6

Prompt: Tell me the measured Tm of GCTGGAACGAAAGTTAGC (((..(((....)))))) , please.
Response: 33.9

Prompt: Would you kindly share the measured Tm for GCGGTACACCGC ((((....)))) ?
Response: 59.1

Prompt: What Tm value was documented for this sequence, GCAATGAAAATTGC (((((....))))) ?
Response: 50.7

Prompt: Requested field: Tm. Item: GCGATCGGAAACGATTGC ((.((((....)))).))
Response: 56.3

Prompt: Tm for GGATAGCGAAAGCTTCC (((.(((....)))))) ?
Response: 48.1

Prompt: For GCCCTTGCGAAAGCAGGC (((..(((....)))))) , what is its reported Tm?
Response: 43.8

Prompt: # get_value(readout='Tm', item= GGAACCTCGAAAGAGTCC (((..(((....)))))) )
Response: 27

Prompt: Return reported Tm; argument: GATCACCTGAGTGATC ((((((....))))))
Response: 57

Prompt: Would you kindly share the measured Tm for GCGAATGGAAACATTCAC (.(((((....))))).) ?
Response: 38.1

Prompt: # Tm lookup, item GTCACTGGAAACAGTGGC (.(((((....))))).)
Response: 53.7

Prompt: Sample GGAGGGCGAAAGCCTCC (((.(((....)))))) — what was its Tm?
Response: 61.9
